System: A498 renal
Experiment notes: NCI tumour cell line growth inhibition, 48 h; in the data active = GI50 below about 0.43 µM; inactive = the rest
Select the matching outcome among active, inactive

Short answer needed: outcome of this test for CCn1ccc(NS(=O)(=O)c2ccc(N)cc2)nc1=O ?
inactive

Please share the test call associated with COCc1c(-c2ccc(NC(=O)Nc3cc(C(F)(F)F)ccc3F)c(F)c2)c2c(N)ncnn2c1CN1CCOCC1 .
active

// outcome(item) with item = CN(C)c1ccc(N=C2C=CC(=O)c3ccccc32)cc1
inactive

Test call for this molecule, please: CCN(Cc1ccc(F)cc1)c1ccc(CO)c(OC)c1
active

Given O=C(/C=C/OC(=O)c1cccc(Cl)c1)c1ccc(Cl)cc1 , state the outcome it received in this test.
inactive

GET /call?item= Nc1c(F)cc(-c2nc3cc(F)ccc3[se]2)cc1Br returns the recorded outcome of this test.
inactive

// outcome(item) with item = CCC[CH2][Pb]([Cl])([CH2]CCC)[CH2]CCC
active

Look up the recorded call for CC1=C([Se]CC(OC(=O)[C@@H](CO)NC(=O)OC(C)(C)C)C(=O)NCCCCCC(=O)OCc2ccccc2)C(=O)c2ccccc2C1=O (some centres undefined) in this test.
inactive

What outcome does the record of this test show for Cc1ccc(OCC2OC(n3cnc4c(Br)nc(Br)nc43)CC2Oc2ccc(C)cc2)cc1 (centres undefined) ?
inactive

Hello, I am checking results. What call was entered for COc1cnc2c(c1)C(=O)c1c-2n(CCCN2CCNCC2)c(=O)c2cc([N+](=O)[O-])ccc12 ?
active

I would be grateful if you could indicate the recorded call for C[CH2][Sn]([CH2]C)([O]C(=O)c1ccc(OC)c(OC)c1OC)[O]C(=O)c1ccc(OC)c(OC)c1OC .
inactive

Could you kindly confirm the outcome this assay logged for COc1ccc(OC)c(/C=C/c2nc(SCc3ccccc3)n(-c3ccc(Cl)cc3)n2)c1 ?
inactive

Check the results log: what was the call for CN1CCN(Cc2cc(NC(=O)c3cccc(C#Cc4cccc5[nH]nc(N)c45)c3)cc(C(F)(F)F)c2)CC1 ?
inactive

Hi, sorry to bother you, what did the test record for COc1cccc(Nc2nccc(-c3cnn4ncccc34)n2)c1 ?
active

* * *

Test system: 786-0 renal
Experiment notes: NCI tumour cell line growth inhibition, 48 h
Could you please report measured TGI for the items listed next?
Numeric answer only, unit µM assumed.

Suppose we examine the compound c1ccc(N/N=C2\NN=C(c3ccccc3)CS2)cc1 ; what TGI value has been reported?
33.6

Would you kindly share the measured TGI for CCCCCCCC(=O)[O][Hg][CH2]C1COC([CH2][Hg][O]C(=O)CCCCCCC)CO1 (stereo unspecified) ?
30.4

Which TGI reading was recorded for the compound O=C1/C(=C/c2ccc(Cl)cc2)CSC/C1=C\c1ccc(Cl)cc1 ?
9.73

* * *

Test system: HCC-2998 colon
Experiment notes: NCI tumour cell line growth inhibition, 48 h
Readout: log10 TGI (log10 of the value in µM)
Heads up, the numbers here are log10 of TGI in µM units.

# log10 TGI lookup, item CSc1ccc(C(=O)/C=C/c2ccccc2Cl)cc1
1.46

Given the molecule Nc1c(F)cc(-c2nc3cc(F)ccc3[se]2)cc1Br , what is its reported log10 TGI?
-0.46

Fill in: log10 TGI of CCCCCC[C@H](C)NC(=O)c1ccc(Nc2nc3ccccc3c3occc23)cc1 is ___
0.62

# query: log10 TGI of entry CCCCCCCCC/C=C1/CC(CO)(COC(=O)c2ccccc2)OC1=O (stereo unspecified)
1.44

Query: log10 TGI; subject: O=C1C(S(=O)(=O)c2ccccc2)=C(CS(=O)(=O)c2ccccc2)[C@@H](OCc2ccccc2)[C@@H]1OCc1ccccc1
1.56

* * *

Test system: CAKI-1 renal
Experiment notes: NCI tumour cell line growth inhibition, 48 h
Readout: TGI

Reported TGI for S=C(N1CCN(c2ccccc2)CC1)N1CCN(c2ccccc2)CC1 : what is it?
> 100 µM

Could you share which TGI value was measured for O=C(N/N=C/C=C/c1ccc([N+](=O)[O-])o1)c1ccc(C(=O)N/N=C/C=C/c2ccc([N+](=O)[O-])o2)cc1 ?
> 90 µM

Reported TGI for CCOC(=O)C(CCc1ncnc2c1ncn2Cc1ccccc1)(CCc1ncnc2c1ncn2Cc1ccccc1)C(=O)OCC : what is it?
> 100 µM

Given the compound C#Cc1cccc(NC(=O)c2ccc(NC(=O)CCl)cc2)c1 , what is its reported TGI?
> 82.5 µM

# get_value(readout='TGI', item= O=c1oc2ccc([N+](=O)[O-])cc2cc1Br )
> 100 µM

For the compound C[CH2][Sn]([CH2]C)([O]C(=O)c1ccc(OC)c(OC)c1OC)[O]C(=O)c1ccc(OC)c(OC)c1OC , what TGI is on record?
30.6 µM

Entry C=C1Cc2cc(OC)c(OC)c(OC)c2-c2ccc(SC)c(=O)cc21 : reported TGI = ?
6.01 µM

Entry O=c1c2cc(I)ccc2nc(-c2cccs2)n1/N=C/c1ccccc1 has what TGI?
> 100 µM

Data request, read-out TGI, for COC(=O)C(/C(=N\NC(N)=S)C(=O)Nc1ccccc1[N+](=O)[O-])c1cnc2ccccc2n1 (stereo not drawn)
> 100 µM

Dear colleague, I am looking for the recorded TGI of the following compound: c1ccc(N/N=C2\NN=C(c3ccccc3)CS2)cc1
8.32 µM

TGI for COCc1c(-c2ccc(NC(=O)Nc3cc(C(F)(F)F)ccc3F)c(F)c2)c2c(N)ncnn2c1CN1CCOCC1 ?
> 10 µM

// query TGI value for entry Cc1ccc2nc(NC(=O)/C(=N\NC(=S)NN)C3C(=O)NC(=S)NC3=O)sc2c1
> 100 µM

Fill blank: measured TGI of the compound Cc1ccc(N=C2C(c3ccccc3)=C(SC3=C(c4ccccc4)C(=Nc4ccc(C)cc4)c4ccccc43)c3ccccc32)cc1 is ____.
65.6 µM

* * *

Test system: HOP-62 NSCLC
Experiment notes: NCI tumour cell line growth inhibition, 48 h
For each entry below, report its TGI value.
Report only the number, with the unit µM understood.

Any idea what its TGI is? The compound is C=CCCCCCCCCC(=O)O
168

Item CSc1ccc(C(=O)/C=C/c2ccccc2Cl)cc1 has what recorded TGI?
35.4

Which TGI is listed for O=C1c2ccccc2C(=O)c2c(NCCCN3CCOCC3)ccc(NCCCN3CCOCC3)c21 ?
13.1

Recorded TGI of CC(=O)OCC1OC(n2nc(Cc3ccccc3)c(=S)[nH]c2=S)C(OC(C)=O)C(OC(C)=O)C1OC(C)=O (stereo not given) , please.
51.4

* * *

Test system: SK-OV-3 ovarian
Experiment notes: NCI tumour cell line growth inhibition, 48 h
Readout: TGI

Which TGI is reported for this compound? CSc1ccc(C(=O)/C=C/c2ccccc2Cl)cc1
> 100 µM

Query: TGI; subject: CCOC(=O)CNc1nnnn1C1OC(CO)C(O)C1O (stereo unspecified)
> 100 µM

// query TGI value for entry Cc1nccc2c3ccc(OCc4cn(-c5ccc(Cl)cc5)nn4)cc3n(CC(C)C)c12
16.5 µM

If you can, please state the reported TGI value of [O-]c1c2c(nn1-c1ccc(Cl)cc1)c1ccccc1c[n+]2Cc1ccccc1 .
> 100 µM

Requested read-out: TGI. Entry: COc1ccc2c(c1OC(C)=O)C1=CC(=O)CCC13CCNC3C2 (stereo unspecified)
> 100 µM

Entry CCCCCCCCC/C=C1/CC(CO)(COC(=O)c2ccccc2)OC1=O (stereo unspecified) has what TGI?
36 µM

* * *

Exercise: state measured log10(TGI) for each of the molecules provided.
Test system: RXF 393 renal
Experiment notes: NCI tumour cell line growth inhibition, 48 h
Parameter value (number): base-10 log of TGI in µM.

Any idea what log10(TGI) was measured for COC(=O)[C@]12CC[C@@H](C)[C@H](C)[C@@H]1C1=CC[C@@H]3[C@@]4(C)C(C=O)=C[C@@](C)(COC(=O)/C=C/c5ccccc5)[C@@H]4[C@H](O)C[C@@]3(C)[C@]1(C)CC2 ?
0.65

Given the entry COc1cc(/C=C/C(=O)c2c(C)nc3ccccc3c2C)ccc1OCCCN1CCN(C(=O)c2ccco2)CC1 , report its measured log10(TGI).
1.01

Suppose we examine the molecule Cc1nccc2c3ccc(OCc4cn(-c5ccc(Cl)cc5)nn4)cc3n(CC(C)C)c12 ; what log10(TGI) value has been reported?
1.07

Looking for the measured log10(TGI) of c1ccc([P+](c2ccccc2)(c2ccccc2)C2c3ccccc3-c3ccccc32)cc1 , can you help?
0.70

Endpoint output: log10(TGI) of C[C@@H](Oc1cc(-n2cnc3ccc(OC[C@@H](O)CO)cc32)sc1C(N)=O)c1ccccc1Cl . Value?
0.32

Entry CSc1ccc(C(=O)/C=C/c2ccccc2Cl)cc1 has what log10(TGI)?
1.21

Name the recorded log10(TGI) for CCOP1(=O)C=C(C)C(=C(Cl)Cl)C(C)=C1 (stereo not given) .
1.49

Find the recorded log10(TGI) belonging to COC1=CC(=O)C2=C(C[C@@]3(C)C(=C2)C(CO)=CC[C@H]3O)C1=O and report it.
1.49

Suppose we examine the molecule N/C(=N\S(=O)(=O)c1cc(Cl)c(Oc2ccc([N+](=O)[O-])cc2Cl)c(Cl)c1)Nc1ccc(Cl)cc1 ; what log10(TGI) value has been reported?
1.50

What does the data say about its log10(TGI)? Entry: CCOC(=O)c1cc(C2CCN(Cc3ccccc3)C2=S)c(C(=O)C=[N+]=[N-])[nH]1 (stereo not given)
1.88

Recorded log10(TGI) for O=[N+]([O-])c1ccc(Sc2ccncn2)c([N+](=O)[O-])c1 , please?
1.07

Query (molecule): CC[C@@]1(CCC(=O)NCCc2c[nH]c3ccccc23)CCC(=O)N2CCc3c([nH]c4ccccc34)[C@H]21 ; field requested: log10(TGI)
1.52

Given the entry O=C(NCCCN1CCN(CCCNC(=O)Nc2cccc3ccccc23)CC1)Nc1cccc2ccccc12 , report its measured log10(TGI).
1.44

Entry source: PubChem BioAssay (NCI)
